assay: duplex formation entropy ΔS (Van't Hoff fit of HRM Tm); higher = smaller entropy loss on duplex formation; conditions: temperature for dG: 50 °C; NaCl: 500 mM (unadjusted); backbone: PS-PO (listed strand fully phosphorothioate, complement phosphodiester)
outcome measure: duplex formation entropy ΔS (cal/mol/K)

1) CGTGTGGATAATTAGCT | -217
2) TTAACCTGCAATGGATC | -195
3) GCTGAACTAACCACCA | -192
4) AGGAGTGAATGAAATGG | -208
5) GCAGGAGCCGCGACCTG | -197
6) CGGTGCTTTTGGTAGC | -200
7) CGCGCGAGTATTTATAACCT | -290
8) AGACATCCCATACGAGCATCCA | -333
9) TCTCGCGGTTCCATTA | -165
10) CGATTTTGTCAAGCCT | -197
11) GCCCGAGCATGACTGCG | -217
12) CAAACTTAGTAATCACGCCCAGCAACCA | -404
13) TAATTATACGAGTAGTTTCTGTCCTG | -312
14) CTCAGAGTAGAGCCGA | -183
15) AACGAATGTCAGCAATT | -197
16) CACAGCGACATGTATGG | -220
17) CCACTAGCGGCGCCGTT | -190

====

duplex melting temperature by entry:
test: duplex melting temperature (HRM, EvaGreen); higher = more stable duplex; conditions: duplex concentration 5 µM; backbone: PS-PO (listed strand fully phosphorothioate, complement phosphodiester)
outcome measure: duplex melting temperature

1. CCGTTGCTGCTAGG | 61.1 °C
2. GCGGTTGGTGGCCAAC | 67.7 °C
3. GAGGCAGCCGCGACCTG | 74.4 °C
4. CTCGGAGGCCCCATTTA | 66.3 °C
5. GCTGAACTAACCACCA | 60.1 °C
6. GCCCGAGCATGACTGCG | 70 °C

====

experiment: duplex formation free energy ΔG50 (Van't Hoff fit of HRM Tm); higher = less stable duplex; details: temperature for dG: 50 °C; NaCl: 500 mM (unadjusted); backbone: PO-PO (both strands phosphodiester DNA)
outcome measure: duplex formation free energy ΔG50

1. CGTGTGGATAATTAGCT | -12.7 kcal/mol
2. CGTGCAGCACTACTTG | -12.8 kcal/mol
3. TATTCTGCCAATGGAAC | -12.4 kcal/mol
4. GAACCGTTGATGATCTC | -12.8 kcal/mol
5. CCACTAGCGGCGCCGTT | -17 kcal/mol
6. TTGAAAACCCATGTGC | -11.8 kcal/mol
7. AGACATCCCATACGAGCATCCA | -17.5 kcal/mol
8. GGTTGCGGTGGCCAAC | -14.7 kcal/mol
9. ATAACTTACTCTCGCCT | -12.7 kcal/mol
10. CTTTTGTGCGGGTAGC | -12.5 kcal/mol
11. TCTCGCGGTTCCATTA | -12.1 kcal/mol
12. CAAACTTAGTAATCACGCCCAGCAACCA | -21 kcal/mol
13. TACTTCCAACGTAGG | -11 kcal/mol
14. GTGAAACAATGCTGTAG | -12.1 kcal/mol
15. GCGGTTGGTGGCCAAC | -14.9 kcal/mol
16. TTAACCTGCAATGGATC | -11.8 kcal/mol
17. TGTCGCACCCTACTA | -12.1 kcal/mol
18. CCGCTCAGAGTAGAGA | -12.5 kcal/mol
19. GCTGAACTAACCACCA | -12.7 kcal/mol
20. CTCGGAGGCCCCATTTA | -13.2 kcal/mol
21. GCTGTGAAACAATGTAG | -12.3 kcal/mol
22. CTCAGAGTAGAGCCGA | -12.5 kcal/mol
23. GTGAGCAGAAGGGGTT | -12.7 kcal/mol
24. AGCTGAGCCTGCCGCC | -16.8 kcal/mol
25. TAGACGCGGCCTCTTTCC | -16.4 kcal/mol
26. CGGTGCTTTTGGTAGC | -13 kcal/mol
27. CTAAACTGTTATAGCCGG | -13.2 kcal/mol
28. TTTGGGTTAGTAAGAAGGCAGCAGTTGGGC | -26.6 kcal/mol
29. CCGTTGCTGCTAGG | -12.3 kcal/mol
30. CACAGCGACATGTATGG | -13.7 kcal/mol
31. TGTAAGACTTCTGCCAGAAA | -16.7 kcal/mol
32. GATCTCTCTATCATCGTTTATTGGGTAT | -18.9 kcal/mol
33. ACTGTATCGCCCTA | -12 kcal/mol
34. ACATGACTCATCTTAGCCGGCGAG | -19.9 kcal/mol
35. TTCTACATCCATCTTAATCCCA | -14.7 kcal/mol
